Provenance of the data: paper PMC12310023

target: CYP3A4 (Homo sapiens, UniProt P08684); assay: in vitro; details: recombinant CYP3A4 supersomes
Sequence (P08684 whole entry): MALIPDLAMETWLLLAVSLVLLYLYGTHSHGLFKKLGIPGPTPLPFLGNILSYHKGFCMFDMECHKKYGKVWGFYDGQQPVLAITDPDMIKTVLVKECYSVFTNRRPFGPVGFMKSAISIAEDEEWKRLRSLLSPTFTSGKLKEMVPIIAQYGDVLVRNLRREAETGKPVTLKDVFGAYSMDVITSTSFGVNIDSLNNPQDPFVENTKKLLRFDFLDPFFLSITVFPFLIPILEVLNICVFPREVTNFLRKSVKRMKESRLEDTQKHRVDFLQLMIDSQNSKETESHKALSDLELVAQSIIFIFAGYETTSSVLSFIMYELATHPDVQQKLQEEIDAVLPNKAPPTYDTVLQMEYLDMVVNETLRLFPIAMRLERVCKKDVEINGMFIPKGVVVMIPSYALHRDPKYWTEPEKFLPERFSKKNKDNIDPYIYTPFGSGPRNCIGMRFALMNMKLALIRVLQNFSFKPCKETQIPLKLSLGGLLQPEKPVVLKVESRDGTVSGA

compound	study_target	CLint scaled
CC1(C)Cn2nc(-c3ccc4cc(OC5CC5)ccc4c3)c(C(N)=O)c2NC1O (stereo not shown)	CYP3A4 (Homo sapiens, UniProt P08684)	5.02 mL/min/kg

* * *

biological target: CYP3A4 (Homo sapiens, UniProt P08684)

compound	IC50
CC1(C)Cn2nc(-c3ccc4cc(OC5CC5)ccc4c3)c(C(N)=O)c2NC1O (stereo not shown) [M2]	> 40 µM

* * *

test: HCT-8 host cell count (Calibr); details: human, CC50, HCT-8 cells infected with BGF Cp, Replicate 1
Quick list: CC50 per entry.

compound	relation_sign	CC50 / µM
CC(=O)Oc1ccccc1C(=O)Nc1ncc([N+](=O)[O-])s1 [Nitazoxanide]	>	30
O=c1[nH]c(=O)n([C@H]2C[C@H](O)[C@@H](CO)O2)cc1F	=	0.192
COc1ccc(C[C@H](N)C(=O)N[C@H]2[C@@H](O)[C@H](n3cnc4c(N(C)C)ncnc43)O[C@@H]2CO)cc1	=	3.09
CC1(C)Cn2nc(-c3ccc4cc(OC5CC5)ccc4c3)c(C(N)=O)c2NC1O (centres unmarked)	>	25
CC(C)/N=c1\cc2n(-c3ccc(Cl)cc3)c3ccccc3nc-2cc1Nc1ccc(Cl)cc1	>	25

* * *

system: C. parvum Zambriski Laboratory isolate; assay: Calibr high-content imaging Cryptosporidium panel; assay type: cell-based, Cryptosporidium parvum; conditions: Cryptosporidium parvum; Calibr Crypto Panel 2; read-out: Wild C. parvum Spot Count EC50
pEC50: −log10 of the molar value.
metric_name: pEC50

compound	measured_result
CC(=O)Oc1ccccc1C(=O)Nc1ncc([N+](=O)[O-])s1 [Nitazoxanide]	5.04

* * *

assay: HCT-8 host cell count (Calibr); details: human, CC50, HCT-8 cells infected with UA Nluc Cp, Replicate 2
// values below are reported CC50

compound	value_unit	relation_sign	CC50
CC1(C)Cn2nc(-c3ccc4cc(OC5CC5)ccc4c3)c(C(N)=O)c2NC1O (centres unmarked)	µM	>	25
O=c1[nH]c(=O)n([C@H]2C[C@H](O)[C@@H](CO)O2)cc1F	µM	=	0.043
CC(C)/N=c1\cc2n(-c3ccc(Cl)cc3)c3ccccc3nc-2cc1Nc1ccc(Cl)cc1	µM	>	25
CC(=O)Oc1ccccc1C(=O)Nc1ncc([N+](=O)[O-])s1 [Nitazoxanide]	µM	>	30
COc1ccc(C[C@H](N)C(=O)N[C@H]2[C@@H](O)[C@H](n3cnc4c(N(C)C)ncnc43)O[C@@H]2CO)cc1	µM	=	2.37

* * *

test system: C. parvum U AZ Laboratory isolate; assay: microbe, parasite or virus in culture; assay type: cell-based, Cryptosporidium parvum; settings: Cryptosporidium parvum; Calibr Crypto Panel 2, 2018-06-18; read-out: Sterling Lab C. parvum Spot Count EC50
metric_name: EC50

compound	measured_result
CC(=O)Oc1ccccc1C(=O)Nc1ncc([N+](=O)[O-])s1 [Nitazoxanide]	3.94 µM
O=c1[nH]c(=O)n([C@H]2C[C@H](O)[C@@H](CO)O2)cc1F	0.00367 µM
COc1ccc(C[C@H](N)C(=O)N[C@H]2[C@@H](O)[C@H](n3cnc4c(N(C)C)ncnc43)O[C@@H]2CO)cc1	0.165 µM

* * *

assay: HCT-8 host cell count (Calibr); settings: human, CC50, HCT-8 cells infected with BGF Cp, Replicate 2

compound	value_unit	relation_sign	CC50
O=c1[nH]c(=O)n([C@H]2C[C@H](O)[C@@H](CO)O2)cc1F	nM	=	80.3
CC(=O)Oc1ccccc1C(=O)Nc1ncc([N+](=O)[O-])s1 [Nitazoxanide]	nM	>	30000
CC(C)/N=c1\cc2n(-c3ccc(Cl)cc3)c3ccccc3nc-2cc1Nc1ccc(Cl)cc1	nM	>	25000
CC1(C)Cn2nc(-c3ccc4cc(OC5CC5)ccc4c3)c(C(N)=O)c2NC1O (centres unmarked)	nM	>	25000
COc1ccc(C[C@H](N)C(=O)N[C@H]2[C@@H](O)[C@H](n3cnc4c(N(C)C)ncnc43)O[C@@H]2CO)cc1	nM	=	2810

* * *

biological target: PKD3 (Homo sapiens, UniProt O94806)
Sequence (O94806 whole entry): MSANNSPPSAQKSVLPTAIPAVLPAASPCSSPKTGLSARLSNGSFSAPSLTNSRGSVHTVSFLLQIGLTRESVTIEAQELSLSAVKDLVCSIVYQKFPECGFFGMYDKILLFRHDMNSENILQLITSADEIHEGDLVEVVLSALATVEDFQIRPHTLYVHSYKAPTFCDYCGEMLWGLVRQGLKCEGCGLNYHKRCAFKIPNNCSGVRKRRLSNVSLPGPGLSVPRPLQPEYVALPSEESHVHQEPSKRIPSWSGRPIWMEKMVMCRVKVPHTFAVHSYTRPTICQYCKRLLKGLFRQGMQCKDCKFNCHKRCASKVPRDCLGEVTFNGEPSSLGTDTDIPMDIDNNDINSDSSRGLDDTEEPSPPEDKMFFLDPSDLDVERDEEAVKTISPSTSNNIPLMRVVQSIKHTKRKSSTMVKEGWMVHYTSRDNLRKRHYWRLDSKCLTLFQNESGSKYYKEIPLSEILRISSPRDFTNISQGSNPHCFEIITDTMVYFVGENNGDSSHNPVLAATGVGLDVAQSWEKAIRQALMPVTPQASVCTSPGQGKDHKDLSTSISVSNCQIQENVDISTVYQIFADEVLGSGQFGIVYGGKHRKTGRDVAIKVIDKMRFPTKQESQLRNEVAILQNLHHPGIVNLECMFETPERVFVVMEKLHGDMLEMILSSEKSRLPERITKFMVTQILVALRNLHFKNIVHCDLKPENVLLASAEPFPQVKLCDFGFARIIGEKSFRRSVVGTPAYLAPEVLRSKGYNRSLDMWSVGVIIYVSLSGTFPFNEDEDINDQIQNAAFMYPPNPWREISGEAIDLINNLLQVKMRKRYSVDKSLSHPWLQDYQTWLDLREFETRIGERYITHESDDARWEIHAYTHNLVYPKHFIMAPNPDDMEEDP
pIC50: −log10 of the molar value.

compound	study_target	pIC50
CC1(C)Cn2nc(-c3ccc4cc(OC5CC5)ccc4c3)c(C(N)=O)c2NC1O (stereo not shown)	PKD3 (Homo sapiens, UniProt O94806)	6.64

* * *

assay: Hepatocyte stability; details: dog, primary hepatocytes

compound	value_unit	CLint scaled
CC1(C)Cn2nc(-c3ccc4cc(OC5CC5)ccc4c3)c(C(N)=O)c2NC1O (stereo not shown) [M2]	mL/min/kg	13.3

* * *

assay: HCT-8 host cell count (Calibr); conditions: human, HCT-8 Cell Count CC50, host cells infected with Sterling oocysts
Here the recorded CC50 is given for each entry.
metric_name: CC50 (µM)

molecule	metric_name	measured_result
CC(=O)Oc1ccccc1C(=O)Nc1ncc([N+](=O)[O-])s1 [Nitazoxanide]	CC50	19.9
O=c1[nH]c(=O)n([C@H]2C[C@H](O)[C@@H](CO)O2)cc1F	CC50	0.079
COc1ccc(C[C@H](N)C(=O)N[C@H]2[C@@H](O)[C@H](n3cnc4c(N(C)C)ncnc43)O[C@@H]2CO)cc1	CC50	3.1

* * *

experiment: HCT-8 host cell count (Calibr); details: human, CC50, HCT-8 cells infected with Ch, Replicate 1
metric_name: CC50 (µM)

molecule	relation_sign	measured_result
CC(C)/N=c1\cc2n(-c3ccc(Cl)cc3)c3ccccc3nc-2cc1Nc1ccc(Cl)cc1	>	25
COc1ccc(C[C@H](N)C(=O)N[C@H]2[C@@H](O)[C@H](n3cnc4c(N(C)C)ncnc43)O[C@@H]2CO)cc1	=	2.66
CC1(C)Cn2nc(-c3ccc4cc(OC5CC5)ccc4c3)c(C(N)=O)c2NC1O (centres unmarked)	>	25
CC(=O)Oc1ccccc1C(=O)Nc1ncc([N+](=O)[O-])s1 [Nitazoxanide]	>	30
O=c1[nH]c(=O)n([C@H]2C[C@H](O)[C@@H](CO)O2)cc1F	=	0.0718

* * *

target: CYP2B6 (Homo sapiens, UniProt P20813); experiment: in vitro; conditions: recombinant CYP2B6 supersomes
Sequence (P20813 whole entry): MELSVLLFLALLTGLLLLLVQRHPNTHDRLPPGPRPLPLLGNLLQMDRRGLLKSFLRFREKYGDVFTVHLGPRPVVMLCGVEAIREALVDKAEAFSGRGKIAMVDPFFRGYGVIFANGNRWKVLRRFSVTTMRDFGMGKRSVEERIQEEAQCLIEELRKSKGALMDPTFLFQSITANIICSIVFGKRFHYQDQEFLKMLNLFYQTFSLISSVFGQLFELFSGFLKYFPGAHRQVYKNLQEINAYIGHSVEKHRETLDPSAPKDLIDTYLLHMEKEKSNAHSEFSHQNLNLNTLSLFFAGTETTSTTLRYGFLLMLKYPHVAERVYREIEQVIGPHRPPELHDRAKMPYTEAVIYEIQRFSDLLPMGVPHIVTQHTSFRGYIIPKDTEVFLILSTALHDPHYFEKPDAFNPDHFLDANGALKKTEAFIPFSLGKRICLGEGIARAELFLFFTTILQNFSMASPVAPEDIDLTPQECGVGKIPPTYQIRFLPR
metric_name: half-life (h)

compound	measured_result
CC1(C)Cn2nc(-c3ccc4cc(OC5CC5)ccc4c3)c(C(N)=O)c2NC1O (stereo not shown)	2.65

* * *

assay: Hepatocyte stability; conditions: human, primary hepatocytes
metric_name: half-life (h)

compound	measured_result
CC1(C)Cn2nc(-c3ccc4cc(OC5CC5)ccc4c3)c(C(N)=O)c2NC1O (stereo not shown)	6.27

* * *

biological target: Cl- channel (GABA-gated); test: Cerep binding assay

compound	study_target	IC50
CC1(C)Cn2nc(-c3ccc4cc(OC5CC5)ccc4c3)c(C(N)=O)c2NC1O (stereo not shown)	Cl- channel (GABA-gated)	17 µM

* * *

test: Hepatocyte stability; details: human, primary hepatocytes
metric_name: hepatocyte CLint (µL/min/1e6 cells)

compound	measured_result
CC1(C)Cn2nc(-c3ccc4cc(OC5CC5)ccc4c3)c(C(N)=O)c2NC1O (stereo not shown)	3.7

* * *

assay: Hepatocyte stability; conditions: rat, primary hepatocytes

molecule	half-life / h
CC1(C)Cn2nc(-c3ccc4cc(OC5CC5)ccc4c3)c(C(N)=O)c2NC1O (stereo not shown)	1.75

* * *

target: CYP2C9 (Homo sapiens); test: in vitro; settings: recombinant CYP2C9 supersomes
Sequence (P11712 whole entry): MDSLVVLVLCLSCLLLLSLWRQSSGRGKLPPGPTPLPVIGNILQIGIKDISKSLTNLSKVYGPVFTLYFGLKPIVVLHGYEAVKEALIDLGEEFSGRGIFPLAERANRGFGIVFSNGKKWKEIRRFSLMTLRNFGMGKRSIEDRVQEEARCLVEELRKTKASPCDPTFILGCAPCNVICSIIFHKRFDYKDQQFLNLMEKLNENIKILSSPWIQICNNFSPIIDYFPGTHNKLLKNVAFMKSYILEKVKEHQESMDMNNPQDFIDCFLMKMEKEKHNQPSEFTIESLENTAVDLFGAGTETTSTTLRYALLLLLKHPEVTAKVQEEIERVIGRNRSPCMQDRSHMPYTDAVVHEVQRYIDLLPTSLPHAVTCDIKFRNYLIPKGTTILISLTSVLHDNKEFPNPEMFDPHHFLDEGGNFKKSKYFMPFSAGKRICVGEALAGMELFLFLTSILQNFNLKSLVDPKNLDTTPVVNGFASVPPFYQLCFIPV
metric_name: CLint scaled

molecule	measured_result
CC1(C)Cn2nc(-c3ccc4cc(OC5CC5)ccc4c3)c(C(N)=O)c2NC1O (stereo not shown)	< 0.107 L/h/kg

* * *

experiment: Hepatocyte stability; details: human, primary hepatocytes

molecule	CLint scaled / mL/min/kg
CC1(C)Cn2nc(-c3ccc4cc(OC5CC5)ccc4c3)c(C(N)=O)c2NC1O (stereo not shown)	10

* * *

assay: Liver microsome stability; conditions: dog, pooled liver microsomes

compound	half-life
CC1(C)Cn2nc(-c3ccc4cc(OC5CC5)ccc4c3)c(C(N)=O)c2NC1O (stereo not shown)	> 2 h

* * *

As shown below, each of these compounds has a reported CC50 value.
assay: HCT-8 host cell count (Calibr); conditions: human, CC50, HCT-8 cells infected with UA Nluc Cp, Replicate 1

compound	relation_sign	CC50, µM
CC(C)/N=c1\cc2n(-c3ccc(Cl)cc3)c3ccccc3nc-2cc1Nc1ccc(Cl)cc1	>	25
CC1(C)Cn2nc(-c3ccc4cc(OC5CC5)ccc4c3)c(C(N)=O)c2NC1O (centres unmarked)	>	25
COc1ccc(C[C@H](N)C(=O)N[C@H]2[C@@H](O)[C@H](n3cnc4c(N(C)C)ncnc43)O[C@@H]2CO)cc1	=	2.97
CC(=O)Oc1ccccc1C(=O)Nc1ncc([N+](=O)[O-])s1 [Nitazoxanide]	>	30
O=c1[nH]c(=O)n([C@H]2C[C@H](O)[C@@H](CO)O2)cc1F	=	0.196

* * *

target: CYP2D6 (Homo sapiens); assay: in vitro; conditions: recombinant CYP2D6 supersomes
Sequence (P10635 whole entry): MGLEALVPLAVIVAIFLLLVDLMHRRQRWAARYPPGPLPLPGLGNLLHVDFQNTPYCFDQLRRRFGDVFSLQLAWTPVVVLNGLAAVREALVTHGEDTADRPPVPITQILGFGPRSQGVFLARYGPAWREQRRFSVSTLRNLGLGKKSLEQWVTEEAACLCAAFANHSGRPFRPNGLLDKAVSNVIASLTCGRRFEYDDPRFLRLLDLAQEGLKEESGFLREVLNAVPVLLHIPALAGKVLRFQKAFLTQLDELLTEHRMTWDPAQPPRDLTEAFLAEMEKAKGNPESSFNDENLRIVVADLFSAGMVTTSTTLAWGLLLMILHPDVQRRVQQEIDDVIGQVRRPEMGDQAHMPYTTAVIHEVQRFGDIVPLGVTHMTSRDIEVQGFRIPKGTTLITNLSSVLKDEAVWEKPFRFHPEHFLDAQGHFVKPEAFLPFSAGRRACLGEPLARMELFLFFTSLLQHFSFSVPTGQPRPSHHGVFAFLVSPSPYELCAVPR
metric_name: half-life

molecule	study_target	measured_result
CC1(C)Cn2nc(-c3ccc4cc(OC5CC5)ccc4c3)c(C(N)=O)c2NC1O (stereo not shown) [M2]	CYP2D6 (Homo sapiens)	> 240 min
